Source listed as patent US20120040955A1.

Please go through the items and note down their IC50.
Molecular target: JAK2 (Homo sapiens, UniProt O60674)
Construct: endogenous in cells
Sequence (O60674 whole entry): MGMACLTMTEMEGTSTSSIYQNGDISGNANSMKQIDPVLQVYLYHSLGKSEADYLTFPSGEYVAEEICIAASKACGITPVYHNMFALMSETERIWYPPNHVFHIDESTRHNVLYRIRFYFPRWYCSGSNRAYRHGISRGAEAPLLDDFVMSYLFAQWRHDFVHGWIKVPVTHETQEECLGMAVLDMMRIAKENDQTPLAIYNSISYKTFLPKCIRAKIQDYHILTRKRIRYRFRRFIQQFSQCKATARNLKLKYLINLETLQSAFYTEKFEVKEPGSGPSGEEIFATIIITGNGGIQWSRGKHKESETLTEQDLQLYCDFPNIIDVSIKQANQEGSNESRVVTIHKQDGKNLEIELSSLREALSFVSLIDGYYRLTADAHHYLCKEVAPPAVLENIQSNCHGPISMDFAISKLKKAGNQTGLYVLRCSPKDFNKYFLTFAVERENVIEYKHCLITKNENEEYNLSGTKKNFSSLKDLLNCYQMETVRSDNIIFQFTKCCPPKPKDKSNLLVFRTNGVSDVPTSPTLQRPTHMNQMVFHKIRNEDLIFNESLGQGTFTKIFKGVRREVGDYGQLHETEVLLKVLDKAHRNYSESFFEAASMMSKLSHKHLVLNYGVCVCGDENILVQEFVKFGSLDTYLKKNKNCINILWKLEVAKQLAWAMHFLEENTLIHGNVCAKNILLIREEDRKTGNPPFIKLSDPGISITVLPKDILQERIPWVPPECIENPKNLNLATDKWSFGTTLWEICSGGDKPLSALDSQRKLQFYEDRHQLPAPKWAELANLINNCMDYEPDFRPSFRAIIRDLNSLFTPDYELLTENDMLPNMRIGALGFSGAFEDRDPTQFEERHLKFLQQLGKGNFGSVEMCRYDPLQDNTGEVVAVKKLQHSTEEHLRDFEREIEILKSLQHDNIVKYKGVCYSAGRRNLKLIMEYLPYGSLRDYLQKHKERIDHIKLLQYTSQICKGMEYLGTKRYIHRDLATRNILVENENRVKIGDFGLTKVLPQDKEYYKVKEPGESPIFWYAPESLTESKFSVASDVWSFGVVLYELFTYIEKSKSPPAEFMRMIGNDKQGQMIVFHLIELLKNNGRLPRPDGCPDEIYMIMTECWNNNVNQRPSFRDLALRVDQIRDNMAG
Assay: kinobeads assay (competition with affinity matrix in mixed Molt4/Ramos cell lysate, dot blot detection), JAK2
Conditions: activity level

Any idea what IC50 was measured for CS(=O)(=O)Nc1ccccc1Nc1nc(Nc2ccc(C#N)cc2F)ncc1Cl [Example 26] ?
> 10 µM

Consider the compound shown here: CCS(=O)(=O)Nc1ccccc1Nc1nc(Nc2cc(C#N)ccc2F)ncc1Cl [Example 43] What is its recorded IC50?
> 10 µM

Return reported IC50; argument: CS(=O)(=O)Nc1ccccc1Nc1nc(Nc2cc(-n3cnnn3)ccc2F)ncc1F [Example 1]
1 to 10 µM

Could you tell me which IC50 is on file for COc1ccc(Nc2nc(Nc3cc(-n4cnnn4)ccc3F)ncc2F)c(NS(C)(=O)=O)c1 [Example 5] ?
1 to 10 µM

IC50 lookup needed for CNC(=O)c1ccc(F)c(Nc2ncc(Cl)c(Nc3ccccc3NS(C)(=O)=O)n2)c1 [Example 21] , thanks.
1 to 10 µM

# IC50 lookup, item COCCNC(=O)c1ccc(F)c(Nc2ncc(Cl)c(Nc3ccccc3NS(C)(=O)=O)n2)c1 [Example 53]
> 10 µM

Reported IC50 for Cc1cccc(Nc2nc(Nc3cc(-n4cnnn4)ccc3F)ncc2Cl)c1NS(C)(=O)=O [Example 9] : what is it?
0.1 to 1 µM

Can you look up the measured IC50 of CNC(=O)c1cccc(Nc2ncc(Cl)c(Nc3ccccc3NS(C)(=O)=O)n2)c1F [Example 56] for me?
1 to 10 µM

Recorded IC50 of CS(=O)(=O)Nc1c(F)cccc1Nc1nc(Nc2cc(-n3cnnn3)ccc2F)ncc1F [Example 3] , please.
> 10 µM

For the compound CS(=O)(=O)Nc1ccccc1Nc1nc(Nc2cc(-n3cnnn3)ccc2F)ncc1Br [Example 12] , what IC50 is on record?
0.1 to 1 µM

Consider the compound shown here: CS(=O)(=O)Nc1ccccc1Nc1nc(Nc2cc(C(=O)NCCO)ccc2F)ncc1Cl [Example 22] What is its recorded IC50?
1 to 10 µM

// IC50 lookup, key: CC(C)NC(=O)c1ccc(Nc2ncc(Cl)c(Nc3ccccc3NS(C)(=O)=O)n2)c(F)c1F [Example 58]
1 to 10 µM

// returns reported IC50 for input CS(=O)(=O)Nc1ccccc1Nc1nc(Nc2cc(C(=O)N3CCCCC3)ccc2F)ncc1Cl [Example 17]
1 to 10 µM

Would you kindly share the measured IC50 for CS(=O)(=O)Nc1ccccc1Nc1nc(Nc2cc(C(=O)NC3CC3)ccc2F)ncc1F [Example 32] ?
> 10 µM

Any idea what its IC50 is? The compound is CCNC(=O)c1ccc(Nc2ncc(Cl)c(Nc3ccccc3NS(C)(=O)=O)n2)c(F)c1 [Example 61]
1 to 10 µM

Suppose we examine the compound CCNC(=O)c1ccc(F)c(Nc2ncc(Cl)c(Nc3ccccc3NS(=O)(=O)CC(F)(F)F)n2)c1 [Example 44] ; what IC50 value has been reported?
> 10 µM

Bench note: what IC50 did CN(c1ccccc1Nc1nc(Nc2cc(-n3cnnn3)ccc2F)ncc1F)S(C)(=O)=O [Example 13] show?
0.1 to 1 µM

---

For each of the compounds below, state its pIC50.
Target: JAK3 (Homo sapiens)
Construct: endogenous in cells
Sequence (P52333 whole entry): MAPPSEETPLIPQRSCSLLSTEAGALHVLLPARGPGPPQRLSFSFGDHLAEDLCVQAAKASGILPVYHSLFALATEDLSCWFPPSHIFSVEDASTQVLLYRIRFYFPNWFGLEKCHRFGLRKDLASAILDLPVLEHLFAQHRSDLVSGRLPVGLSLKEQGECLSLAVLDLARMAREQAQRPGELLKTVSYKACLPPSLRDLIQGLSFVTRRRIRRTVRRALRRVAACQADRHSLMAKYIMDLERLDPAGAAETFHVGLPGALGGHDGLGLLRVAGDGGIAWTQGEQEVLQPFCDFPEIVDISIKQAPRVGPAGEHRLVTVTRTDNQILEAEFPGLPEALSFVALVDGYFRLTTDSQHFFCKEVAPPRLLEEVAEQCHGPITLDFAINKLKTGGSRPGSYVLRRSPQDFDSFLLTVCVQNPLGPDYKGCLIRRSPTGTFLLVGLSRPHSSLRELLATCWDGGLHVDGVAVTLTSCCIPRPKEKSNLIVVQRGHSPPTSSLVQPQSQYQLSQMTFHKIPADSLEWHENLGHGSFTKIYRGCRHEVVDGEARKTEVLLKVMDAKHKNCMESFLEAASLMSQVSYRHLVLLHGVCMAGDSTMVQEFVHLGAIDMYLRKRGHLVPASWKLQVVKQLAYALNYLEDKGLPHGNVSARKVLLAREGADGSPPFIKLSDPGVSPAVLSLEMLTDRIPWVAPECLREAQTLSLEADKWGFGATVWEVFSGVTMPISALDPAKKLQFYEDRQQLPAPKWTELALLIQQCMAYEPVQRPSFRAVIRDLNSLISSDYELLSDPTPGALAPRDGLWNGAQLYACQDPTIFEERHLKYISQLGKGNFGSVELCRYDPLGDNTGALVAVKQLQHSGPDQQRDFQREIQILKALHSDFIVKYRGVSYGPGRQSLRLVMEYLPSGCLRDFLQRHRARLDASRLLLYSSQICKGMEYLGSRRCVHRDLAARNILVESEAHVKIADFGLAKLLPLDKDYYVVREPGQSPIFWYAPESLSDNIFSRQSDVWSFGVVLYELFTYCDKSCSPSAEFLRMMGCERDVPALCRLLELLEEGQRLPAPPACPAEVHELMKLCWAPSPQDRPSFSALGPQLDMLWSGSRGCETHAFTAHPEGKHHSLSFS
Experiment: kinobeads assay (competition with affinity matrix in mixed Molt4/Ramos cell lysate, dot blot detection), JAK3
Details: activity level
pIC50: −log10 of the molar value.

Look at this compound and give its reported pIC50. CS(=O)(=O)Nc1ccccc1Nc1nc(Nc2cc(C(=O)NC3CC3)ccc2F)ncc1Cl
> 7.00

Report pIC50 for CCNC(=O)c1ccc(Nc2ncc(Cl)c(Nc3ccccc3NS(C)(=O)=O)n2)c(F)c1 please.
> 7.00

Value lookup for pIC50; key = Cc1cccc(Nc2nc(Nc3cc(-n4cnnn4)ccc3F)ncc2F)c1NS(C)(=O)=O
> 7.00

Requested field: pIC50. Item: CCN(CC)C(=O)c1ccc(F)c(Nc2ncc(Cl)c(Nc3ccccc3NS(C)(=O)=O)n2)c1
6.00 to 7.00

Reported pIC50 for CCNC(=O)c1ccc(F)c(Nc2ncc(Cl)c(Nc3ccccc3NS(C)(=O)=O)n2)c1 : what is it?
> 7.00

Query: pIC50; subject: CCS(=O)(=O)Nc1ccccc1Nc1nc(Nc2cc(C(=O)N3CCCC3)ccc2F)ncc1Cl
6.00 to 7.00

Bench note: what pIC50 did CNC(=O)c1ccc(F)c(Nc2ncc(F)c(Nc3ccccc3NS(C)(=O)=O)n2)c1 show?
6.00 to 7.00

I have this compound here, CNC(=O)c1ccc(F)c(Nc2ncc(Cl)c(Nc3ccccc3NS(C)(=O)=O)n2)c1 , and I need its recorded pIC50.
> 7.00

What measured pIC50 goes with CS(=O)(=O)Nc1ccccc1Nc1nc(Nc2ccc(C#N)cc2F)ncc1Cl ?
6.00 to 7.00

Would you mind telling me what pIC50 value was observed for CN(c1ccccc1Nc1nc(Nc2cc(-n3cnnn3)ccc2F)ncc1F)S(C)(=O)=O ?
> 7.00
